Tested on: U2OS
test-details: Multiplex assay against U2OS
Assay type: toxicity, cell-based
condition-summary: human, 12 h, 1 µM, compound concentration 1 uM, replicate 2
Population Normal (%): recorded values
Give a bare numeral; the unit % is implied.

CN1CCC(C(=O)c2cccc(NC(=O)c3c(F)cc(F)cc3F)n2)CC1 : 98
Cc1sc2c(c1C)C(c1ccc(Cl)cc1)=N[C@H](CC(=O)OC(C)(C)C)c1nnc(C)n1-2 : 95
O=C(NCCNCC(O)COc1ccc(O)cc1)N1CCOCC1.O=C(NCCNCC(O)COc1ccc(O)cc1)N1CCOCC1.O=C(O)/C=C/C(=O)O (stereo unspecified) [XAMOTEROL FUMARATE] : 96
CCc1nn2c(C)cc(C)nc2c1Cc1ccc(-c2nnc(C3CCNCC3)o2)cc1 : 97
Cc1cc(O)c(-c2ccc([C@@H](C)CN(C)C)cc2)c2c1[nH]c(=O)c1sccc12 : 97

Next molecule, Population Normal (%) to be filled in.
[in] What value of Population Normal (%) on U2OS does `Cc1nn(C)c2nc(NNC(=O)Nc3cc(Cl)nc(Cl)c3)cc(C(C)C)c12` have?
[out] 97

###

System: U2OS
test-details: Multiplex assay against U2OS
Assay type: toxicity, cell-based
condition-summary: human, 24 h, 10 µM, compound concentration 10 uM, replicate 2
Population Pyknosed Nuclei (%): recorded values
Give a bare numeral; the unit % is implied.

Take a look at these entries with their results.
Cc1sc2c(c1C)C(c1ccc(Cl)cc1)=N[C@H](CC(=O)OC(C)(C)C)c1nnc(C)n1-2 : 10
COc1ccc2[nH]c(I)c(CCNC(C)=O)c2c1 : 5
Cc1cc(O)c(-c2ccc([C@@H](C)CN(C)C)cc2)c2c1[nH]c(=O)c1sccc12 : 28
O=c1nc2[nH]c3ccccc3nc-2c(=O)[nH]1 : 2

[in] Which Population Pyknosed Nuclei (%) reading was recorded for the compound `CC(C)C[C@H](CO)Nc1nc(S[C@@H](C)c2ccccc2)nc2nc(N)sc12` ?
[out] 6

###

Tested on: Fibroblast
test-details: Multiplex assay against human fibroblast
Assay type: toxicity, cell-based
condition-summary: 48 h, 10 µM, compound concentration 10 uM, replicate 2
Population Healthy Nuclei (%): recorded values
Give a bare numeral; the unit % is implied.

COc1cc(OC2CCN(C(C)=O)CC2)ccc1C(=O)N1CCC(N2C(=O)OCc3ccccc32)CC1 : 51

[in] Which Population Healthy Nuclei (%) reading was recorded for the compound `COc1cc(C(=O)N2CC[C@@H](O)[C@@H](N)C2)cc2nc(-c3cc4ccccc4n3CC3CC3)n(C)c12.Cl` ?
[out] 55

[in] Which Population Healthy Nuclei (%) reading was recorded for the compound CCn1c(-c2nc3cc(C(=O)N4CCCC(N)C4)ccc3n2C)cc2ccccc21.Cl (stereo not drawn) ?
[out] 57

###

Test system: HEK-293T
test-details: Multiplex assay against HEK293T
Format: toxicity, cell-based
condition-summary: human, 12 h, 10 µM, compound concentration 10 uM, replicate 2
Population Apoptotic (%): recorded values
Give a bare numeral; the unit % is implied.

CC(F)(F)CN1CCOc2c(nn(-c3ccccc3Cl)c2-c2ccc(Cl)cc2)C1=O : 43
O=C(NCCNCC(O)COc1ccc(O)cc1)N1CCOCC1.O=C(NCCNCC(O)COc1ccc(O)cc1)N1CCOCC1.O=C(O)/C=C/C(=O)O (stereo not given) [XAMOTEROL FUMARATE] : 29
CN1CCC(C(=O)c2cccc(NC(=O)c3c(F)cc(F)cc3F)n2)CC1 : 53
COc1cc2nc(N3CCN(C(=O)c4ccco4)CC3)nc(N)c2cc1OC.Cl [PRAZOSIN HYDROCHLORIDE] : 55
O=c1nc2[nH]c3ccccc3nc-2c(=O)[nH]1 : 60

[in] Which Population Apoptotic (%) reading was recorded for the compound `Nc1nc(CC(=O)Nc2ccc(CCNC[C@H](O)c3ccccc3)cc2)cs1` ?
[out] 44

These data points were gathered from ChEMBL document CHEMBL5058577.
